Origin of the recorded values: patent US10364247B2

# system: BaF3-EML4-ALK (Homo sapiens, UniProt Q9UM73)
# Construct: fused on or other part: Q9HC35 (Echinoderm microtubule-associated protein-like 4)
# Sequence (Q9UM73 whole entry, change not shown, the tested form may be a part): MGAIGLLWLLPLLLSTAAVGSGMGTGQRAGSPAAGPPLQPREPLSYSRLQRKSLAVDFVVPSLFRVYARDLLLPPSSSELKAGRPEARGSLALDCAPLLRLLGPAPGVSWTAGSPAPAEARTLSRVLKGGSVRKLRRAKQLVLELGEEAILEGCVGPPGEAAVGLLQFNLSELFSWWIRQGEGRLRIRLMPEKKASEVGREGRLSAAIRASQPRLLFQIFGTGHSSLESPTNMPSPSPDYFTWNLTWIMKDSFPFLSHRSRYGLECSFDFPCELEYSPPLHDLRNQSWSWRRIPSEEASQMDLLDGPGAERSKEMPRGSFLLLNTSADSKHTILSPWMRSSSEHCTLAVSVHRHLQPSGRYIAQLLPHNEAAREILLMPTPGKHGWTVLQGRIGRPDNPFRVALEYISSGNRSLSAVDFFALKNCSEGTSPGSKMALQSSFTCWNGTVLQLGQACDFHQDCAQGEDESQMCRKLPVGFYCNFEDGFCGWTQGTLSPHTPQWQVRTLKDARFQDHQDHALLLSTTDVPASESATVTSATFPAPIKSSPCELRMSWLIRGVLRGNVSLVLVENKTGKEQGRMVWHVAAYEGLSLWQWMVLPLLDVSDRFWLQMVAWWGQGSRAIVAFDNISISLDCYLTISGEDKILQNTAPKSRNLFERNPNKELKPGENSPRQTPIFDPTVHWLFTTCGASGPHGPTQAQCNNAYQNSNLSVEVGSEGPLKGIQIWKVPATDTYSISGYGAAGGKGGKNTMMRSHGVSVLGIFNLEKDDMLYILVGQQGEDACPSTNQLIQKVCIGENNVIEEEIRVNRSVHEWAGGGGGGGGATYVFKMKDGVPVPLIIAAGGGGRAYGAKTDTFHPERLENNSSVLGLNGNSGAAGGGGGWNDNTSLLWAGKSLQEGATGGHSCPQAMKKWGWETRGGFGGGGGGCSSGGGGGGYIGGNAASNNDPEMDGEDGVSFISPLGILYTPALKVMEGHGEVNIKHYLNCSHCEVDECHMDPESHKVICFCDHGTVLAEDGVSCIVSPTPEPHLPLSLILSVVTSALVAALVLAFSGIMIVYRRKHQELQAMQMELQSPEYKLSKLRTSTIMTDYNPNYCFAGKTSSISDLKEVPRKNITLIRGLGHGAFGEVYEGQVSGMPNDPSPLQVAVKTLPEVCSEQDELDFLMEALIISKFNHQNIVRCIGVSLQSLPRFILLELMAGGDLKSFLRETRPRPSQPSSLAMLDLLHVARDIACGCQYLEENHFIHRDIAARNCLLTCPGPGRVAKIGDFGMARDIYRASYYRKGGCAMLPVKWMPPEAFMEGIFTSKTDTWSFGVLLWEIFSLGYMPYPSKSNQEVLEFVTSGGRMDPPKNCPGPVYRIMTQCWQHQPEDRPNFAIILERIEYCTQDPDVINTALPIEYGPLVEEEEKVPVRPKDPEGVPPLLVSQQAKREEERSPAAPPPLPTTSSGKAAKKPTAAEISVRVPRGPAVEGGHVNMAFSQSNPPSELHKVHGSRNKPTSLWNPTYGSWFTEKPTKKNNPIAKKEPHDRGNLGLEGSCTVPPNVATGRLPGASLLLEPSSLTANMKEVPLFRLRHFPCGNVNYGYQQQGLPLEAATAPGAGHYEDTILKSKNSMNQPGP
# experiment: Antiproliferative activity, kinase-dependent Ba/F3 cells (MTT/MTS)
# Type: cell-based, murine
# study_conditions: 48 hours, cell viability, read-out: EML4-ALK IC50
measured_parameter: GI50

Answered examples (3):
input: What measured GI50 goes with "Cc1ccc(NC(=O)c2cccc(C(F)(F)F)c2)cc1N1Cc2cnc(NCCN(C)C)nc2N(C)C1" ?
output: ~2.78 µM

input: # input molecule: "Cc1ccc(Nc2ncc3c(n2)N(C)CN(c2cccc(NC(=O)c4cccc(C(F)(F)F)c4)c2)C3)cn1" ; wanted: its GI50
output: > 10 µM

input: So what's the measured GI50 for this one? "Cc1ccc(N)cc1N1Cc2cnc(Nc3ccc(N4CCOCC4)nc3)nc2N(C)C1"
output: > 10 µM

Turning to the following molecule.
input: Field request: GI50 | item: "COc1ccc(NC(=O)c2cccc(C(F)(F)F)c2)cc1N1Cc2cnc(Nc3ccc(C)nc3)nc2N(C)C1"
output: ~9.03 µM

---

# system: BaF3-BCR/ABL-T315I (Homo sapiens, UniProt P00519, T315I, cells depend on it)
# Construct: fused on or other part: P11274 (Breakpoint cluster region protein)
# experiment: Antiproliferative activity, kinase-dependent Ba/F3 cells (MTT/MTS)
# Format: cell-based, murine
# study_conditions: 48 hours, cell viability, read-out: BCR/ABL T315I IC50
The entries below are paired with their reported GI50.

The examples below pair each entry with its known result.
input: Form field: reported GI50 of Cc1ccc(NC(=O)c2cccc(C(F)(F)F)c2)cc1N1Cc2cnc(Nc3cnn(C)c3)nc2N(C)C1 [IA-10]
output: 2.76 µM

input: Tell me the measured GI50 of Cc1ccc(C(F)(F)F)cc1N1Cc2cnc(Nc3ccc(N4CCOCC4)nc3)nc2N(C)C1 [ID-4] , please.
output: > 10 µM

input: What value of GI50 has been reported for the following molecule? CN1CN(c2ccc(F)c(Cl)c2)Cc2cnc(Nc3ccc(N4CCOCC4)nc3)nc21 [ID-2]
output: > 10 µM

Moving on to another molecule below.
input: // returns reported GI50 for input Cc1ccc(Nc2ncc3c(n2)N(C)CN(c2cc(C(=O)NCCO)ccc2C)C3)cn1 [IC-2]
output: > 10 µM

---

Reported GI50 is given for each of the following compounds.
# system: BaF3-TEL-INSR (Homo sapiens, UniProt P06213)
# Construct: fused on or other part: P41212 (Transcription factor ETV6)
# Sequence (P06213 whole entry, stated change not applied, the tested form may be a part): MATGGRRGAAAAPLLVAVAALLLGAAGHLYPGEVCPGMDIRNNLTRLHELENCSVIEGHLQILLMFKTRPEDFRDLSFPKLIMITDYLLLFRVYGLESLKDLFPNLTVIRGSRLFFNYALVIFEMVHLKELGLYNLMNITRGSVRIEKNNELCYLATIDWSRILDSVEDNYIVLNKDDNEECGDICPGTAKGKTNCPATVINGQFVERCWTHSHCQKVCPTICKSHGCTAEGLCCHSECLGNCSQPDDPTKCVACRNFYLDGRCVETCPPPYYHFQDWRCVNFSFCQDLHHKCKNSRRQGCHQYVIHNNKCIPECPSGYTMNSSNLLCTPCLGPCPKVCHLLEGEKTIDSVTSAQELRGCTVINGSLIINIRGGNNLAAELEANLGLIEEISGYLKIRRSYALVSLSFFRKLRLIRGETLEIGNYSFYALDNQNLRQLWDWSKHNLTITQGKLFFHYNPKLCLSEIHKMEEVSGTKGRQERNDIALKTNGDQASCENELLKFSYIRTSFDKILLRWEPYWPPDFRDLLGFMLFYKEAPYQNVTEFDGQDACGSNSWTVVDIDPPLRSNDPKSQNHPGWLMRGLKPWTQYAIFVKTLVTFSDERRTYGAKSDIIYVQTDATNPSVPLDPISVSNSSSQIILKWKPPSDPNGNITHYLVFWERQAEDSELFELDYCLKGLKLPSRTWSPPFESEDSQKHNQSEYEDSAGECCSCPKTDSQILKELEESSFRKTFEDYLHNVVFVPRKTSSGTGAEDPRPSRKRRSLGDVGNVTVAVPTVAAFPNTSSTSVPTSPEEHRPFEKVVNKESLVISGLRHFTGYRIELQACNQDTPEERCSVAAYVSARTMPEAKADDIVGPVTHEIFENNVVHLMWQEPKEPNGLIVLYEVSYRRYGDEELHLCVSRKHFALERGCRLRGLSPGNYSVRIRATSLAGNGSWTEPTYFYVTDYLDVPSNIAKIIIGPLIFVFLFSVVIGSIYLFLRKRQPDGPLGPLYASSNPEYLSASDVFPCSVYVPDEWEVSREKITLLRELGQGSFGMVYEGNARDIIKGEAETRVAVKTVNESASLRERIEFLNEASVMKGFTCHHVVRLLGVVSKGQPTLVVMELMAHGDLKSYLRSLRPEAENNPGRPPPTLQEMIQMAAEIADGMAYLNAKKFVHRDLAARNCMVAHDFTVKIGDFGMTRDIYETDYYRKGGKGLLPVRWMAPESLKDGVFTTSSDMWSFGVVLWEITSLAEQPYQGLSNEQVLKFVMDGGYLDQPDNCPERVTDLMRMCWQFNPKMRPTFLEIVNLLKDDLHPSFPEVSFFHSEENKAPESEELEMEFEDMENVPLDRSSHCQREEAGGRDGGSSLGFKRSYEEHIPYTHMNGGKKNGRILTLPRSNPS
# experiment: Antiproliferative activity, kinase-dependent Ba/F3 cells (MTT/MTS)
# Format: cell-based, murine
# study_conditions: 48 hours, cell viability, read-out: Tel-INSR IC50
# Protocol: Following up on the kinome data, the ability of compounds disclosed in the present invention to inhibit proliferation of cells that are dependent on selected protein kinases was tested. […] The background control wells to which media with no cells added and the vehicle control wells were included on each plate in triplicate. Cell viability was determined using MTT (Sigma, St. Louis, Mo., USA) and MTS (Promega, Madison, Wis., USA), according to the manufacturer's instructions. […]
Write it as a number; the unit nM goes unstated.

input: Name the reported GI50 value associated with the compound "Cc1ccc(Nc2ncc3c(n2)N(C)CN(c2cc(NC(=O)c4cccc(C(F)(F)F)c4)ccc2C)C3)cn1"
output: 869

input: # input compound: "Cc1ccc(NC(=O)c2cccc(C(F)(F)F)c2)cc1N1Cc2cnc(Nc3ccc(N4CCC(O)CC4)nc3)nc2N(C)C1" ; wanted: its GI50
output: 320

input: Value lookup for GI50; key = "CCN1CN(c2cc(NC(=O)c3cccc(C(F)(F)F)c3)ccc2C)Cc2cnc(Nc3ccc(C)nc3)nc21"
output: 3230

New cases:
input: So what does the record say about GI50 for "Cc1cc(Nc2ncc3c(n2)N(C)CN(c2cc(NC(=O)c4cccc(C(F)(F)F)c4)ccc2C)C3)n(C)n1" ?
output: 2280

---

Reported GI50 is given for each of the following molecules.
# system: BaF3-TEL-LYN (Homo sapiens)
# Construct: fused on or other part: P41212 (Transcription factor ETV6)
# Sequence (P07948 whole entry, change not shown, the tested form may be a part): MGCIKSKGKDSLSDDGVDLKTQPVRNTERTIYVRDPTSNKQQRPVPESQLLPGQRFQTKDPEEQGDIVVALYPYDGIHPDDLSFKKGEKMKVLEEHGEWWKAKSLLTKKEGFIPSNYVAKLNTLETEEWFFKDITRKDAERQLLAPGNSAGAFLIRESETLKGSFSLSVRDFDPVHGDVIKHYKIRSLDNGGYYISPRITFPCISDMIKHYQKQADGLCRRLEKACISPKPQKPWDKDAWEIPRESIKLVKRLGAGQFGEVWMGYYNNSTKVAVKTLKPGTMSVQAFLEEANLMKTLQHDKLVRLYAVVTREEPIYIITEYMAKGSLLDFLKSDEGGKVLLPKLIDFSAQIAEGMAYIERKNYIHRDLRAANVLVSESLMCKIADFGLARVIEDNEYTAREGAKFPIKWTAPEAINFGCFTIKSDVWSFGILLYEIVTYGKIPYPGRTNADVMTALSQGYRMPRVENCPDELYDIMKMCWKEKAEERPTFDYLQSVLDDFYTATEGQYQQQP
# experiment: Antiproliferative activity, kinase-dependent Ba/F3 cells (MTT/MTS)
# Type: cell-based, murine
# study_conditions: 48 hours, cell viability, read-out: tel-LYN IC50
Kindly answer with a numeric value in nM, unit omitted.

// worked examples, GI50 included
input: Name the reported GI50 value associated with the molecule "Cc1ccc(Nc2ncc3c(n2)N(c2ccccc2)CN(c2cc(NC(=O)c4cccc(C(F)(F)F)c4)ccc2C)C3)cn1"
output: 4110

input: Form field: reported GI50 of "Cc1ccc(Nc2ncc3c(n2)N(C)CN(c2cc(C(=O)Nc4cccc(C(F)(F)F)c4)ccc2C)C3)cn1"
output: 189

From here, focus on the item given below.
input: Item "Cc1ccc(NC(=O)c2cccc(C(F)(F)F)c2)cc1N1Cc2cnc(NC3CC3)nc2N(C)C1" has what recorded GI50?
output: 1320

---

Parameter: GI50. Scope: all listed entries.
# system: BaF3-EML4-ALK (Homo sapiens, UniProt Q9UM73)
# Construct: fused on or other part: Q9HC35 (Echinoderm microtubule-associated protein-like 4)
# experiment: Antiproliferative activity, kinase-dependent Ba/F3 cells (MTT/MTS)
# Assay type: cell-based, murine
# study_conditions: 48 hours, cell viability, read-out: EML4-ALK IC50
Enter your answer as a number in µM; do not include the unit.

Some solved cases for reference:
input: Field request: GI50 | item: "Cc1cc(Nc2ncc3c(n2)N(C)CN(c2cc(NC(=O)c4cccc(C(F)(F)F)c4)ccc2C)C3)n(C)n1"
output: 2.22

input: Entry "Cc1ccc(NC(=O)c2cccc(C(F)(F)F)c2)cc1N1Cc2cnc(NCCN3CCOCC3)nc2N(C)C1" has what GI50?
output: 4.05

input: What value of GI50 has been recorded for this entry: "Cc1ccc(NC(=O)c2cccc(C(F)(F)F)c2)cc1N1Cc2cnc(Nc3ccc(N4CCOCC4)nc3)nc2N(C)C1"
output: 1.16

---
input: Query (compound): "CNc1ncc2c(n1)N(C)CN(c1cc(NC(=O)c3cccc(C(F)(F)F)c3)ccc1C)C2" ; field requested: GI50
output: 6.34

input: Would you kindly share the measured GI50 for "Cc1ccc(Nc2ncc3c(n2)N(C2CCCC2)CN(c2cc(NC(=O)c4cccc(C(F)(F)F)c4)ccc2C)C3)cn1" ?
output: 5.88

input: Quick one: GI50 of "CCN1CN(c2cc(NC(=O)c3cccc(C(F)(F)F)c3)ccc2C)Cc2cnc(Nc3ccc(C)nc3)nc21" ?
output: 2.64

---

# system: BaF3-BCR/ABL (Homo sapiens, UniProt P00519)
# Construct: fused on or other part: P11274 (Breakpoint cluster region protein)
# experiment: Antiproliferative activity, kinase-dependent Ba/F3 cells (MTT/MTS)
# Format: cell-based, murine
# study_conditions: 48 hours, cell viability, read-out: BCR/ABL IC50
# Procedure: Following up on the kinome data, the ability of compounds disclosed in the present invention to inhibit proliferation of cells that are dependent on selected protein kinases was tested. […] The background control wells to which media with no cells added and the vehicle control wells were included on each plate in triplicate. Cell viability was determined using MTT (Sigma, St. Louis, Mo., USA) and MTS (Promega, Madison, Wis., USA), according to the manufacturer's instructions. […]
measured_parameter: GI50

Here is how some molecules turned out for GI50.
input: For the molecule CN1CN(c2ccc(F)c(Cl)c2)Cc2cnc(Nc3ccc(N4CCOCC4)nc3)nc21 [ID-2] , what GI50 is on record?
output: > 10 µM

input: Please look up its GI50: Cc1ccc(NC(=O)c2cccc(C(F)(F)F)c2)cc1N1Cc2cnc(NCCN(C)C)nc2N(C)C1 [IA-2]
output: > 10 µM

New cases:
input: What value of measured GI50 is listed for CN1CN(c2ccc(Br)cc2F)Cc2cnc(Nc3ccc(N4CCOCC4)nc3)nc21 [ID-3] ?
output: > 10 µM
